Recorded measurements of kon, one per entry
- measurement target: T1, Extracellular domain of cyno PD1 (cPD1-ECD) (Macaca fascicularis (cynomolgus))
- T1 construct: Expressed with a hexahistidine tag or as Fc fusion; also called cynoPD1-ECD; cynoPD-1-ECD
- T1 chain: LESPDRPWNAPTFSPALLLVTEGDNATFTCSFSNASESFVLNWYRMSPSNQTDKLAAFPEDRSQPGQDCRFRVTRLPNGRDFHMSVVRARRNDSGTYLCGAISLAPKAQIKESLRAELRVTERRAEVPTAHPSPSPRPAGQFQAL
- procedure summary: SPR ProteOn, cynoPD1-ECD; RANGE low replicate
Expressed in M⁻¹ s⁻¹, but write only the number.

Check out these entries, answers already filled in.
PD1B175 (antibody, V domains shown, Tested as IgG2sigma; also called PD1H163/PH9L3) VH: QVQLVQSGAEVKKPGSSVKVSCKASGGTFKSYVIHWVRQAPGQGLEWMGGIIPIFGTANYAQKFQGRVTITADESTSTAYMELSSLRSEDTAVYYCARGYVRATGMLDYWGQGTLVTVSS VL: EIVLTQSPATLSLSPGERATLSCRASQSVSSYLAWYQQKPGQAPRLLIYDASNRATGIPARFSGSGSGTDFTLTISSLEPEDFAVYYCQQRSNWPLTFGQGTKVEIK = 198000
PD1B164 (antibody, human IgG2, kappa, V domains shown, IgG2sigma/kappa; VH 42, VL 53; also called PD1H131/PD1L71) VH: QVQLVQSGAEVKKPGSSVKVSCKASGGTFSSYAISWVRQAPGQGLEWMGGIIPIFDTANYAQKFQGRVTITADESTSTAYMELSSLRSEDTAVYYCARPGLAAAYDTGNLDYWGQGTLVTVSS VL: EIVLTQSPATLSLSPGERATLSCRASQSVRSYLAWYQQKPGQAPRLLIYDASYRATGIPARFSGSGSGTDFTLTISSLEPEDFAVYYCQQRDYWPLTFGQGTKVEIKR = 267000
PD1B192 (antibody, human IgG2, kappa, V domains shown, IgG2sigma/kappa; VH 43, VL 57; also called PD1H3/PD1L133) VH: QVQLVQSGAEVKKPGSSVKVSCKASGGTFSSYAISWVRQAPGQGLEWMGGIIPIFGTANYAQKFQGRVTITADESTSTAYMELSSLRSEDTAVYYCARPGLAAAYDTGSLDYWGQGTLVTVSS VL: EIVLTQSPATLSLSPGERATLSCRASQSVDSYLAWYQQKPGQAPRLLIHDASNRATGIPARFSGSGSGTDFTLTISSLEPEDFAVYYCQQRNYWPLTFGQGTKVEIKR = 290000
PD1B183 (antibody, human IgG2, kappa, V domains shown, IgG2sigma/kappa; VH 43, VL 54; also called PD1H3/PD1L109) VH: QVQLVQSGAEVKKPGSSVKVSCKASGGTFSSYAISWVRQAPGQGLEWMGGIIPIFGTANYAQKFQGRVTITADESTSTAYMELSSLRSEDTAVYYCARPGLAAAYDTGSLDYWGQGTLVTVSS VL: EIVLTQSPATLSLSPGERATLSCRASQSVSSYLAWYQQKPGQAPRLLIKDASNRATGIPARFSGSGSGTDFTLTISSLEPEDFAVYYCQQRGYWPLTFGQGTKVEIKR = 304000

Here is the next item to consider.
Query: Request the reported kon associated with PD1B162 (antibody, human IgG2, kappa, V domains shown, IgG2sigma/kappa; VH 42, VL 52; also called PD1H131/PD1L67) VH: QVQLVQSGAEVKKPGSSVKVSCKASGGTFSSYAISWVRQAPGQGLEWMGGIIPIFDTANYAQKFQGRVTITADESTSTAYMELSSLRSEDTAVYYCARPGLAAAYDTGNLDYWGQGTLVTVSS VL: EIVLTQSPATLSLSPGERATLSCRASQSVDSYLAWYQQKPGQAPRLLIYDASNRATGIPARFSGSGSGTDFTLTISSLEPEDFAVYYCQQREYWPLTFGQGTKVEIKR
Reply: 384000
